- Species on record: Rattus norvegicus
- Assay Remarks: DrugMatrix - Regimen: Daily Repeat
- Assay type: toxicity, organism-based, Sprague-Dawley
- Design: regimen Daily Repeat, gender Male, age 6-8 weeks
- Experimental Context: in vivo, ip, 2 mg/kg, […], tissue Blood, route intraperitoneal, dose level High, time 14 day, vehicle 100 % SALINE
Readout Name: ABSOLUTE BASOPHIL

Answer with reported ABSOLUTE BASOPHIL of LEAD (II) ACETATE
88 cells/µL

---

- Organism: Rattus norvegicus
- Assay Remarks: DrugMatrix - Regimen: Daily Repeat
- Assay type: toxicity, organism-based, Sprague-Dawley
- Parameters: regimen Daily Repeat, gender Male, age 6-8 weeks
- Experimental Context: in vivo, po, 0 mg/kg, 120 h, tissue Plasma, route oral GAVAGE, dose level Control, time 5 day, vehicle .5 % CMC
// reported ASPARTATE AMINOTRANSFERASE per item
Expressed in u/L, but write only the number.

Some solved cases for reference:
Answer with reported ASPARTATE AMINOTRANSFERASE of CCn1cc(C(=O)O)c(=O)c2cc(F)c(N3CCNCC3)cc21
81.83

Answer with reported ASPARTATE AMINOTRANSFERASE of Cc1ccc(/N=C/N(C)/C=N/c2ccc(C)cc2C)c(C)c1
81.83

Answer with reported ASPARTATE AMINOTRANSFERASE of N=C(N)NCCN1CCCCCCC1
65

Continuing:
Answer with reported ASPARTATE AMINOTRANSFERASE of C1CCC(C(CC2CCCCN2)C2CCCCC2)CC1 (stereo not drawn)
74.17

Answer with reported ASPARTATE AMINOTRANSFERASE of ClC(Cl)Br
140.33

---

- Species: Rattus norvegicus
- Assay Remarks: DrugMatrix - Regimen: Daily Repeat
- Type: toxicity, organism-based, Sprague-Dawley
- Parameters: regimen Daily Repeat, gender Male, age 6-8 weeks
- Experimental Context: in vivo, po, 0 mg/kg, 72 h, tissue Blood, route oral GAVAGE, dose level Control, time 3 day, […]
Readout Name: MEAN CORPUSCULAR HEMOGLOBIN CONCENTRATION (G/DL)
Expressed in G/DL, but write only the number.

Some solved cases for reference:
Answer with reported MEAN CORPUSCULAR HEMOGLOBIN CONCENTRATION of CN(C)c1nc(N(C)C)nc(N(C)C)n1 [ALTRETAMINE]
38.52

Answer with reported MEAN CORPUSCULAR HEMOGLOBIN CONCENTRATION of Cc1ccc(-c2cc(C(F)(F)F)nn2-c2ccc(S(N)(=O)=O)cc2)cc1 [CELECOXIB]
39.78

Answer with reported MEAN CORPUSCULAR HEMOGLOBIN CONCENTRATION of O=NN(CCCl)C(=O)NC1CCCCC1 [LOMUSTINE]
38.52

Continuing:
Answer with reported MEAN CORPUSCULAR HEMOGLOBIN CONCENTRATION of C[C@H]1O[C@@H](O[C@H]2[C@@H](O)C[C@H](O[C@H]3[C@@H](O)C[C@H](O[C@H]4CC[C@@]5(C)[C@H](CC[C@@H]6[C@@H]5C[C@@H](O)[C@]5(C)[C@@H](C7=CC(=O)OC7)CC[C@]65O)C4)O[C@@H]3C)O[C@@H]2C)C[C@H](O)[C@@H]1O [DIGOXIN]
39.03

Answer with reported MEAN CORPUSCULAR HEMOGLOBIN CONCENTRATION of C[C@@H]1CN(c2c(F)c(N)c3c(=O)c(C(=O)O)cn(C4CC4)c3c2F)C[C@H](C)N1 [SPARFLOXACIN]
38.52

Answer with reported MEAN CORPUSCULAR HEMOGLOBIN CONCENTRATION of CCOC(=O)C1=C(COCCN)NC(C)=C(C(=O)OC)C1c1ccccc1Cl (stereo not drawn) [AMLODIPINE]
38.52

Answer with reported MEAN CORPUSCULAR HEMOGLOBIN CONCENTRATION of OC(Cn1cncn1)(Cn1cncn1)c1ccc(F)cc1F [FLUCONAZOLE]
39.78

Answer with reported MEAN CORPUSCULAR HEMOGLOBIN CONCENTRATION of O=C(O)CCCc1ccc(N(CCCl)CCCl)cc1 [CHLORAMBUCIL]
39.78

---

- Species on record: Rattus norvegicus
- Assay Remarks: DrugMatrix - Regimen: Daily Repeat
- Assay type: toxicity, organism-based, Sprague-Dawley
- Parameters: regimen Daily Repeat, gender Male, age 6-8 weeks
- Experimental Context: in vivo, iv, 0 mg/kg, 120 h, tissue Plasma, dose level Control, time 5 day, vehicle 100 % SALINE
Starred links: 1 amine or outer side, 2 acyl side, 3 side chain; linkers in the order of their positions; H or OH if unused. Positions of bridges follow the written chain, without caps; N, C: chain ends. Non-standard residues stand in square brackets, D forms with d. Residues, ends and D or L forms follow the SMILES beside them. Chains are numbered I, II in the order given. Actinocin(9to1) = Cc1c2oc3c(C)ccc(C(=O)[*:1])c3nc-2c(C(=O)[*:2])c(N)c1=O; NMeV = CN[C@H](C(=O)O)C(C)C; Sar = CNCC(=O)O
// reported CREATININE per item
Your reply should be a number followed by the unit it is expressed in.

Answer with reported CREATININE of Cc1c2oc3c(C)ccc(C(=O)N[C@@H]4C(=O)N[C@H](C(C)C)C(=O)N5CCC[C@H]5C(=O)N(C)CC(=O)N(C)[C@@H](C(C)C)C(=O)O[C@@H]4C)c3nc-2c(C(=O)N[C@@H]2C(=O)N[C@H](C(C)C)C(=O)N3CCC[C@H]3C(=O)N(C)CC(=O)N(C)[C@@H](C(C)C)C(=O)O[C@@H]2C)c(N)c1=O [DACTINOMYCIN] (I: T[dV]P[Sar][NMeV] / II: T[dV]P[Sar][NMeV]; ester I:1-I:C, II:1-II:C; linker I:N-II:N via Actinocin(9to1))
0.23 mg/dL

---

- Organism: Rattus norvegicus
- Assay Remarks: DrugMatrix - Regimen: Daily Repeat
- Assay type: toxicity, organism-based, Sprague-Dawley
- Design: regimen Daily Repeat, gender Male, age 6-8 weeks
- Experimental Context: in vivo, po, 0 mg/kg, 72 h, tissue Blood, route oral GAVAGE, dose level Control, time 3 day, vehicle 100 % WATER
Readout Name: HEMATOCRIT (%)
Expressed in %, but write only the number.

Some solved cases for reference:
Answer with reported HEMATOCRIT of C[C@H](CS)C(=O)N1CCC[C@H]1C(=O)O [CAPTOPRIL]
32.43

Answer with reported HEMATOCRIT of COc1cc2nc(N3CCN(C(=O)C4COc5ccccc5O4)CC3)nc(N)c2cc1OC (stereo unspecified) [DOXAZOSIN]
35.33

Answer with reported HEMATOCRIT of CC(O)CO (stereo unspecified) [PROPYLENE GLYCOL]
36.35

Continuing:
Answer with reported HEMATOCRIT of CNNCc1ccc(C(=O)NC(C)C)cc1 [PROCARBAZINE]
33.02

Answer with reported HEMATOCRIT of c1ccc([C@H]2CN3CCSC3=N2)cc1 [LEVAMISOLE]
34.38

Answer with reported HEMATOCRIT of Cn1cc[nH]c1=S [METHIMAZOLE]
34.5

---

// reported MEAN CORPUSCULAR HEMOGLOBIN CONCENTRATION per item
- Species on record: Rattus norvegicus
- Assay Remarks: DrugMatrix - Regimen: Daily Repeat
- Type: toxicity, organism-based, Sprague-Dawley
- Design: regimen Daily Repeat, gender Male, age 6-8 weeks
- Experimental Context: in vivo, iv, 0 mg/kg, 72 h, tissue Blood, dose level Control, time 3 day, vehicle 100 % SALINE
Starred links: 1 amine or outer side, 2 acyl side, 3 side chain; linkers in the order of their positions; H or OH if unused. Positions of bridges follow the written chain, without caps; N, C: chain ends. Non-standard residues stand in square brackets, D forms with d. Residues, ends and D or L forms follow the SMILES beside them. Chains are numbered I, II in the order given. Actinocin(9to1) = Cc1c2oc3c(C)ccc(C(=O)[*:1])c3nc-2c(C(=O)[*:2])c(N)c1=O; NMeV = CN[C@H](C(=O)O)C(C)C; Sar = CNCC(=O)O
Expressed in G/DL, but write only the number.

Some solved cases for reference:
Answer with reported MEAN CORPUSCULAR HEMOGLOBIN CONCENTRATION of CC[C@]1(O)C[C@H]2CN(CCc3c([nH]c4ccccc34)[C@@](C(=O)OC)(c3cc4c(cc3OC)N(C=O)[C@H]3[C@@](O)(C(=O)OC)[C@H](OC(C)=O)[C@]5(CC)C=CCN6CC[C@]43[C@@H]65)C2)C1
38.23

Answer with reported MEAN CORPUSCULAR HEMOGLOBIN CONCENTRATION of Cc1c2oc3c(C)ccc(C(=O)N[C@@H]4C(=O)N[C@H](C(C)C)C(=O)N5CCC[C@H]5C(=O)N(C)CC(=O)N(C)[C@@H](C(C)C)C(=O)O[C@@H]4C)c3nc-2c(C(=O)N[C@@H]2C(=O)N[C@H](C(C)C)C(=O)N3CCC[C@H]3C(=O)N(C)CC(=O)N(C)[C@@H](C(C)C)C(=O)O[C@@H]2C)c(N)c1=O [DACTINOMYCIN] (I: T[dV]P[Sar][NMeV] / II: T[dV]P[Sar][NMeV]; ester I:1-I:C, II:1-II:C; linker I:N-II:N via Actinocin(9to1))
39.48

Answer with reported MEAN CORPUSCULAR HEMOGLOBIN CONCENTRATION of COc1cc2c3cc1Oc1cc(ccc1O)C[C@@H]1c4c(cc(OC)c(O)c4Oc4ccc(cc4)C[C@@H]3N(C)CC2)CC[N+]1(C)C.[Cl-]
39.9

Okay, now this compound:
Answer with reported MEAN CORPUSCULAR HEMOGLOBIN CONCENTRATION of Cc1ccc(N(CC2=NCCN2)c2cccc(O)c2)cc1
37.1

Every entry's value here was drawn from ChEMBL document CHEMBL3885881.
